Where do these numbers come from? They come from patent US9393309B2.

Assay: Percentage of remaining gels with the passage of time
Type: physicochemical
Conditions: DNA 0.5 mM, NaCl 150 mM
measure-name: initial percentage of gels

• Tetrapodna (12-14-14): four ODNs, SEQ ID NOs.: 30, 31, 32 and 33, 12-base palindrome cohesive protruding end (nucleic acid, DNA, all phosphodiester, methylation of C not given here) DNA 1: ACGTCATGACGTTGCACGACATCACGTTGACGCTCGTCGA DNA 2: ACGTCATGACGTTCGACGAGCGTCAATCTCGCAACGTGCA DNA 3: ACGTCATGACGTTGCACGTTGCGAGACAGACGCTTGACGA DNA 4: ACGTCATGACGTTCGTCAAGCGTCTGCGTGATGTCGTGCA = about 100%
• Tetrapodna(8-16-16): four ODNs, SEQ ID NOs.: 22, 23, 24 and 25, 8-base cohesive protruding end (nucleic acid, unmodified DNA) DNA 1: ACGTACGTTAGCACGACATCAGCGTCTGACGCTTCGTCGA DNA 2: ACGTACGTTCGACGAAGCGTCAGATCTCGTCAACGCTGCA DNA 3: ACGTACGTTGCAGCGTTGACGAGACAGACGCTTGACGCTA DNA 4: ACGTACGTTAGCGTCAAGCGTCTGCGCTGATGTCGTGCTA = about 100%
• Tetrapodna (6-17-17): four ODNs, SEQ ID NOs.: 18, 19, 20 and 21, 6-base cohesive protruding end (nucleic acid, unmodified DNA) DNA 1: AACGTTTACGCACGACATCAGCGTCTGGACGCTTCGTCGA DNA 2: AACGTTTCGACGAAGCGTCCAGATCTCGTCAACGCTGCGA DNA 3: AACGTTTCGCAGCGTTGACGAGACAGACGCTGTGACGCTA DNA 4: AACGTTTAGCGTCACAGCGTCTGCGCTGATGTCGTGCGTA = about 100%
